Consider the following compounds and their measured EC50 readings.
# Assayed System: recombinant human mGluR2 (Homo sapiens)
# Experimental Protocol: FLIPR Ca2+ mobilization assay, potentiation of glutamate (EC20) response
# Experimental Conditions: CHO dhfr- cells expressing human mGluR2 and Gα16, EC20 glutamate (900 nM)
The figure you give is taken to be in nM; do not add the unit.

Study these solved cases before continuing.
Compound	Unit Name	EC50
C=CCOc1ccc2c(nnn2CC2CC2)c1Br	nM	60
Brc1c(OCc2cscn2)ccc2c1nnn2CC1CC1	nM	150
O=C1CCC(Oc2ccc3c(nnn3CC3CC3)c2Br)CC12CC2 (centres unmarked)	nM	87
CCOc1ccc2c(nnn2CC2CC2)c1Br	nM	530
CC(C)(C)Cn1nnc2c(Br)c(OCc3ncccn3)ccc21	nM	521

Notebook: pull reported EC50 for recombinant human mGluR2 (Homo sapiens), entry COc1cccc(COc2ccc3c(nnn3CC3CC3)c2Br)n1
10

// next record CC(C)[C@@H](C)n1nnc2c(Br)c(O)c(Br)cc21
373

// next record N#CCOc1ccc2c(nnn2CC2CC2)c1Br
281

---

Consider the following compounds and their measured EC50 readings.
# Assayed System: recombinant human mGluR2 (Homo sapiens)
# Experimental Protocol: FLIPR Ca2+ mobilization assay, potentiation of glutamate (EC20) response
# Experimental Conditions: CHO dhfr- cells expressing human mGluR2 and Gα16, EC20 glutamate (900 nM)
The figure you give is taken to be in nM; do not add the unit.

Study these solved cases before continuing.
Compound	Assayed System	EC50 (nM)
CC(C)(C)Cn1nnc2c(Br)c(OCc3cccc(N4CCCCC4)n3)ccc21 [Example 4-27]	recombinant human mGluR2 (Homo sapiens)	288
CC(C)(C)C(O)COc1ccc2c(nnn2CC2CC2)c1Br (racemic) [Example 8-1]	recombinant human mGluR2 (Homo sapiens)	72

Param item = C[C@H](O)C(=O)N1CCC(COc2ccc3c(nnn3CC3CC3)c2Br)CC1 [Example 4-65] ; retrieve measured EC50.
188

// next record CC(C)(C)Cn1nnc2c(Br)c(OCc3ccccc3Cl)ccc21 [Example 4-45]
65

// next record Brc1c(OCCn2cccn2)ccc2c1nnn2CC1CC1 [Example 10-275]
214

---

# Assayed System: recombinant human mGluR2 (Homo sapiens)
# Experimental Protocol: FLIPR Ca2+ mobilization assay, potentiation of glutamate (EC20) response
# Experimental Conditions: CHO dhfr- cells expressing human mGluR2 and Gα16, EC20 glutamate (900 nM)
pEC50: −log10 of the molar value.
Note to self: values exactly at 7 are class 1. So pEC50 at or above 7 is class 1, below is class 0.

Would you say FC(F)(F)CN1CCN(CCOc2ccc3c(nnn3CC3CC3)c2Br)CC1 shows pEC50 at minimum 7?
class 0

---

# Assayed System: recombinant human mGluR2 (Homo sapiens, UniProt Q14416)
# Construct: expressed in transfected cells
# Sequence (Q14416 19-872): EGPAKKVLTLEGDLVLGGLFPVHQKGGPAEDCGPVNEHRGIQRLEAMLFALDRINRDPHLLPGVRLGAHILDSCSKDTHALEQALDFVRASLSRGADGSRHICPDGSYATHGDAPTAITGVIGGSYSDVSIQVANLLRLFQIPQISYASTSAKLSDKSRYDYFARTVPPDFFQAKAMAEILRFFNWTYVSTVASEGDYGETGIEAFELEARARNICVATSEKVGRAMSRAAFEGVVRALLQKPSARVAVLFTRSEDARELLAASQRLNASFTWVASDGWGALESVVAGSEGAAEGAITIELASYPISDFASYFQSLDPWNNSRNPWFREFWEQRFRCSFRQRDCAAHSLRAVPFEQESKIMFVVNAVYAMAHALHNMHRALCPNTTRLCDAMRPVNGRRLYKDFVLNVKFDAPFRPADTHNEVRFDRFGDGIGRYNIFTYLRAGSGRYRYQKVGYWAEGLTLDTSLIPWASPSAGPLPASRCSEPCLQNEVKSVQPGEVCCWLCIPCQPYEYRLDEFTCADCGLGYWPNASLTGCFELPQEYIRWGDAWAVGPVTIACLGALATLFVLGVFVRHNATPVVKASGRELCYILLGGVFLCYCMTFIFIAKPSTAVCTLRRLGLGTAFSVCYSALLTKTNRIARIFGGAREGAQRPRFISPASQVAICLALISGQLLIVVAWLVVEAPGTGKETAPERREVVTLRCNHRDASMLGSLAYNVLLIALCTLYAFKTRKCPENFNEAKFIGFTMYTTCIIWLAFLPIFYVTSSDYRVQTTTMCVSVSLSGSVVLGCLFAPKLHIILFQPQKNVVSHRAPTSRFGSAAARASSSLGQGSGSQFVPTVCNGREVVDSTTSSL
# Experimental Protocol: FLIPR Ca2+ mobilization assay, potentiation of glutamate (EC20) response
# Assay type: cell-based
# Experimental Conditions: CHO dhfr- cells expressing human mGluR2 and Gα16, EC20 glutamate (900 nM)
Consider the following compounds and their measured log10 of EC50 readings.
On a log10 scale: recorded EC50, unit nM.

Param item = CC(C)(C)Cn1nnc2c(Br)c(OCc3ncccc3F)ccc21 ; retrieve measured log10 of EC50.
1.61

// next record COc1ccc2c(nnn2CCCC(F)(F)F)c1Br
1.71

// next record CC1(COc2ccc3c(nnn3CC3CC3)c2C(F)(F)F)CCN(C(=O)CO)CC1
0.85

// next record FC(F)(F)c1c(OCc2ccccc2)ccc2c1nnn2CC1CC1
0.95

// next record Brc1c(OCC2CCC2)ccc2c1nnn2CC1CC1
1.59

// next record CC(C)(C)C(=O)COc1ccc2c(nnn2CC2CC2)c1Br
1.53

// next record FC(F)CN1CCC(Oc2ccc3c(nnn3CC3CC3)c2Br)CC1
2.63

// next record CC(C)(C)Cn1nnc2c(Br)c(OCc3cccc4ccnn34)ccc21
1.62

// next record COc1ccc2c(nnn2CC2CCCC2)c1Br
1.97

// next record Cc1cnc(C#N)c(-c2cccc(COc3ccc4c(nnn4CC(C)(C)C)c3Br)c2)c1
1.20

// next record CC(C)(C)/C(COc1ccc2c(nnn2CC2CC2)c1Br)=N/O
1.92

// next record CC(Oc1ccc2c(nnn2CC(C)(C)C)c1Br)c1ccccc1 (stereo not drawn)
1.96

// next record CC(C)(C)OC(=O)N1CCC(COc2ccc3c(nnn3CC3CC3)c2Cl)CC1
1.53

// next record CC(C)(C)Cn1nnc2c(Br)c(OCc3cccc(-c4c[nH]nc4C#N)c3)ccc21
1.69

// next record CC(C)(C)OC(=O)N1CCC(COc2ccc3c(nnn3CC3CC3)c2Br)C1 (stereo not drawn)
1.30

// next record CCOc1ccc2c(nnn2CC(C)(C)C)c1Br
1.51

// next record Brc1c(OCC2COCCO2)ccc2c1nnn2CC1CC1 (stereo not drawn)
2.62

// next record CC(C)(C)Cn1nnc2c(Br)c(OCc3cccc(-c4ccc(O)c(C(=O)O)c4)c3)ccc21
0.54
